species on record: Homo sapiens; experiment: In vitro inhibition of ADP-induced platelet aggregation using human platelet rich plasma; format: functional
recorded_metric: IC50 (nM)
Numbers only, in nM.

- molecule: "O=C(O)COc1cccc(C[C@H]2CCCC=C2c2nc(-c3ccccc3)c(-c3ccccc3)o2)c1"
  recorded_metric: "IC50"
  reading_unit: "nM"
  assay_value: 110
- molecule: "CC#CCC(C)[C@H](O)/C=C/[C@@H]1[C@H]2C/C(=C/CCCC(=O)O)C[C@H]2C[C@H]1O (some centres undefined) [ILOPROST]"
  recorded_metric: "IC50"
  reading_unit: "nM"
  assay_value: 2.5
- molecule: "O=C(O)COc1cccc(CC2=C(c3nc(-c4ccccc4)c(-c4ccccc4)o3)CCCC2)c1"
  recorded_metric: "IC50"
  reading_unit: "nM"
  assay_value: 530

Consider now this further molecule.
Entry O=C([O-])COc1cccc(C[C@@H]2CCCC=C2c2nc(-c3ccccc3)c(-c3ccccc3)o2)c1.[Na+] — recorded IC50 = 60

###

experiment: Pharmacokinetic property (F) was measured in rat at the dose of 0.32 mg/kg; type: ADME, organism-based; set-up: dose 0.32 mg/kg; details: in vivo
recorded_metric: bioavailability

Field bioavailability (entry O=C([O-])COc1cccc(C[C@@H]2CCCC=C2c2nc(-c3ccccc3)c(-c3ccccc3)o2)c1.[Na+] ) reads 50%

###

experiment: Pharmacokinetic property (CLtot)of the compound was measured in rat at the dose of 0.32 mg/kg i.v.; format: ADME, organism-based; design: dose 0.32 mg/kg, route intravenous; details: in vivo, iv, read-out: CLtotal
recorded_metric: clearance
State the value with its unit after it.

Per the record, O=C([O-])COc1cccc(C[C@@H]2CCCC=C2c2nc(-c3ccccc3)c(-c3ccccc3)o2)c1.[Na+] has clearance of 17.7 mL/min/kg

###

assay: Pharmacokinetic property (AUC) was measured in dog at the dose of 0.032 mg/kg p.o.; assay type: ADME, organism-based, Canis lupus familiaris; design: dose 0.032 mg/kg, route oral; conditions: in vivo, po
recorded_metric: AUC

For reference, reported AUC for O=C([O-])COc1cccc(C[C@@H]2CCCC=C2c2nc(-c3ccccc3)c(-c3ccccc3)o2)c1.[Na+] stands at 392 ng·h/mL

###

experiment: Pharmacokinetic property (F) was measured in dog at the dose of 0.032 mg/kg; type: ADME, organism-based, Canis lupus familiaris; parameters: dose 0.032 mg/kg; conditions: in vivo
recorded_metric: bioavailability (%)
Give bare numbers, in %.

Reported bioavailability for O=C([O-])COc1cccc(C[C@@H]2CCCC=C2c2nc(-c3ccccc3)c(-c3ccccc3)o2)c1.[Na+] was 72

###

experiment: Pharmacokinetic property (Tmax) was measured in dog at the dose of 0.032 mg/kg p.o.; type: ADME, organism-based, Canis lupus familiaris; parameters: dose 0.032 mg/kg, route oral; details: in vivo, po
recorded_metric: Tmax (h)
One number for each entry, in h.

O=C([O-])COc1cccc(C[C@@H]2CCCC=C2c2nc(-c3ccccc3)c(-c3ccccc3)o2)c1.[Na+] yielded Tmax of 2.3

###

experiment: Pharmacokinetic property (Tmax) was measured in rat at the dose of 0.32 mg/kg p.o.; assay type: ADME, organism-based; design: dose 0.32 mg/kg, route oral; settings: in vivo, po
recorded_metric: Tmax (min)
Answers are plain numbers, in min.

Field Tmax (entry O=C([O-])COc1cccc(C[C@@H]2CCCC=C2c2nc(-c3ccccc3)c(-c3ccccc3)o2)c1.[Na+] ) reads 18

Data origin, for the record: ChEMBL document CHEMBL1136467
